Assay: A CellTox Green Cytotoxicity Assay to monitor cytotoxicity in HepG2 cells - 24 hour (AID 1224878); note: nearly all actives have a fitted effect of over 45% in size
Settings: CellTox Green fluorescence; series mostly up to 76.8 µM
Excerpt: National Center for Advancing Translational Sciences [NCATS] NIH Chemical Genomics Center [NCGC] U.S. Environmental Protection Agency [EPA] National Institutes of Environmental Health Sciences [NIEHS] National Toxicology Program [NTP] Cell-based models are critical for drug discovery. […] Viable cells produce no appreciable increases in fluorescence. Therefore, the fluorescence signal produced by the binding interaction with dead cell DNA is proportional to cytotoxicity. […]
Records with an inconclusive call do not appear. Active and inactive are the calls of the source. Calls come from the whole dose curve; as a rule, active = well fitted activation curve with a large enough effect in the repeat runs; inconclusive = weak or mixed curves; inactive = flat fitted curve, though single readings scatter.
Thanks in advance; please answer with one of these: 1.0 for active, 0.0 for inactive

INSERT INTO assay_data (compound, label_class) VALUES
  ('CCC(C)c1ccccc1 (stereo unspecified)', 0.0);

Query: Call for entry "CC(=O)O[C@@H]1C[C@@H]2CC[C@@]1(C)C2(C)C" :
Reply: 0.0

Query: Call for entry "Cc1cccc(Br)c1" :
Reply: 0.0

Query: Call for entry "C[C@@H]1CC[C@H]2C(C)(C)[C@H]3C[C@@]12CC[C@@]3(C)O" :
Reply: 1.0

Query: Call for entry "COC(=O)NCCC[Si](OC)(OC)OC" :
Reply: 0.0

Query: Call for entry "C=C(C)C(=O)OCCC[Si](Cl)(Cl)Cl" :
Reply: 0.0

Cited source: PubChem BioAssay (Tox21)
